biological target: Adenosine receptor A3 (Homo sapiens) (UniProt P0DMS8); test: Displacement of [3H]PSB-11 from recombinant human A3 adenosine receptor expressed in CHO cell membranes at 1 uM measured after 45 mins in presence of adenosine deaminase by liquid scintillation counting method relative to control
Sequence (P0DMS8 whole entry): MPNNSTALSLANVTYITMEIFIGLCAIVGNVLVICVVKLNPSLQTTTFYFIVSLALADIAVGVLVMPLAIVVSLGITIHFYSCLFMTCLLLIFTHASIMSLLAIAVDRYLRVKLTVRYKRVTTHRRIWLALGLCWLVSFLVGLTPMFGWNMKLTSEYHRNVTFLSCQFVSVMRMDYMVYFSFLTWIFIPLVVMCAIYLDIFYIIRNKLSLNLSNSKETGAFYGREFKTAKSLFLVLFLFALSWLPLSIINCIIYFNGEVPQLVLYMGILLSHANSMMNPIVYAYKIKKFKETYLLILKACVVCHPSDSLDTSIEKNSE
Provide the reported inhibition of each item.
Record the value in %, omitting the unit from your answer.

Entry CCCn1c(=O)[nH]c2nc(-c3ccc(S(=O)(=O)N4CCN(C(=O)c5ccccc5)CC4)cc3)[nH]c2c1=O : reported inhibition = ? 26

Entry CCCn1c(=O)[nH]c2nc(-c3ccc(S(=O)(=O)N4CCN(c5ccccc5)C(C)C4)cc3)[nH]c2c1=O (stereo not drawn) : reported inhibition = ? -2

Entry CCCn1c(=O)[nH]c2nc(-c3ccc(S(=O)(=O)N4CCN(c5ccc(I)cc5)CC4)cc3)[nH]c2c1=O : reported inhibition = ? 36

Entry CCCn1c(=O)[nH]c2nc(-c3ccc(S(=O)(=O)N4CCN(c5ccc(C)cc5)CC4)cc3)[nH]c2c1=O : reported inhibition = ? 25

Entry CCCn1c(=O)[nH]c2nc(-c3ccc(S(=O)(=O)N4CCN(c5ccc(O)c(Cl)c5)CC4)cc3)[nH]c2c1=O : reported inhibition = ? 41

Entry CCCn1c(=O)[nH]c2nc(-c3ccc(S(=O)(=O)N4CCN(Cc5cccc(OC)c5)CC4)cc3)[nH]c2c1=O : reported inhibition = ? 27

Entry CCCn1c(=O)[nH]c2nc(-c3ccc(S(=O)(=O)N4CCN(c5ccc(OCCO)cc5)CC4)cc3)[nH]c2c1=O : reported inhibition = ? 23

Entry CCCn1c(=O)[nH]c2nc(-c3ccc(S(=O)(=O)N4CCN(Cc5ccc(N=[N+]=[N-])cc5)CC4)cc3)[nH]c2c1=O : reported inhibition = ? 32

###

Target: Adenosine receptor A2b (Mus musculus)
Sequence (Q60614 whole entry): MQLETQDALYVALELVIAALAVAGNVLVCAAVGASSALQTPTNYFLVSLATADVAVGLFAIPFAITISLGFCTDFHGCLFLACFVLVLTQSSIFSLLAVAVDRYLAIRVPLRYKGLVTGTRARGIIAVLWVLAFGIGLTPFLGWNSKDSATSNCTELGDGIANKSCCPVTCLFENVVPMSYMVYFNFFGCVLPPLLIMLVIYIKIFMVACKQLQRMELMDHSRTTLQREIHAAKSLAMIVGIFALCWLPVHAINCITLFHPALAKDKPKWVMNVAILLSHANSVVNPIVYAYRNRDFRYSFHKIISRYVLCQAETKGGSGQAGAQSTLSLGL
Experiment: Displacement of [3H]PSB-603 from recombinant mouse A2B adenosine receptor expressed in CHO cell membranes measured after 75 mins in presence of adenosine deaminase by liquid scintillation counting method
value_type: Ki (nM)
Record the value in nM, omitting the unit from your answer.

Entry CCCn1c(=O)c2[nH]c(-c3ccc(S(=O)(=O)N4CCN(c5ccc(Cl)cc5)CC4)cc3)nc2n(C)c1=O : reported Ki = ? 8.34

Entry CCCn1c(=O)[nH]c2nc(-c3ccc(S(=O)(=O)N4CCN(Cc5cccc(Br)c5)CC4)cc3)[nH]c2c1=O : reported Ki = ? 0.901

Entry CCCn1c(=O)[nH]c2nc(-c3ccc(S(=O)(=O)N4CCN(c5ccc(Br)cc5)CC4)cc3)[nH]c2c1=O : reported Ki = ? 0.131

Entry CCCn1c(=O)[nH]c2nc(-c3ccc(S(=O)(=O)N4CCN(c5cccc(F)c5)CC4)cc3)[nH]c2c1=O : reported Ki = ? 0.926

###

target: Adenosine receptor A2a (Homo sapiens, UniProt P29274); assay: Displacement of [3H]ZM241385 from recombinant human A2A adenosine receptor expressed in CHO cell membranes measured after 60 mins by topcount scintillation counting method
Sequence (P29274 whole entry): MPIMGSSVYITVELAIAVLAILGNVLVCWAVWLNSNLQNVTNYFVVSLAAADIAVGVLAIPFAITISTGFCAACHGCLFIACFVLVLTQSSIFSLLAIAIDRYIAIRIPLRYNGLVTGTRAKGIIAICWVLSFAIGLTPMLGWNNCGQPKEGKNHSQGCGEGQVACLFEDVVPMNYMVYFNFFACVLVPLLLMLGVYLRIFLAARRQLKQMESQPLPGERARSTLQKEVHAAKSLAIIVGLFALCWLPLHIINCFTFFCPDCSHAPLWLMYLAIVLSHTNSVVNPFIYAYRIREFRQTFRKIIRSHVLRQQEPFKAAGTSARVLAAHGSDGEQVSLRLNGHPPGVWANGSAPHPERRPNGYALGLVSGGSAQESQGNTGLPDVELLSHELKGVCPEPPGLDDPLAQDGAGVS
value_type: pKi
Please treat pKi as minus the base-10 logarithm of the molar concentration.

Kindly state the measured pKi obtained for O=C(Nc1nc2nn(CCCc3ccccc3)cc2c2nc(-c3ccco3)nn12)c1cccc2ccccc12 with Adenosine receptor A2a (Homo sapiens, UniProt P29274). 6.10

###

Biological target: Adenosine receptor A2b (Rattus norvegicus, UniProt P29276)
Sequence (P29276 whole entry): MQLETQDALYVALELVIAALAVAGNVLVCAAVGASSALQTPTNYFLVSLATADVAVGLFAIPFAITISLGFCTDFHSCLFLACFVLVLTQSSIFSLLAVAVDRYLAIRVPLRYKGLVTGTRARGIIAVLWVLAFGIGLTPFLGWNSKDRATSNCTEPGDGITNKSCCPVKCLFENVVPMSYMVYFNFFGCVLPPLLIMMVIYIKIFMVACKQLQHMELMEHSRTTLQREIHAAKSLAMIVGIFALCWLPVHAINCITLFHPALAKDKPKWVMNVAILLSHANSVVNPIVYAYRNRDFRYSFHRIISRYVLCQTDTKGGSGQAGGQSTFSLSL
Experiment: Displacement of [3H]PSB-603 from recombinant rat A2B adenosine receptor expressed in CHO cell membranes measured after 75 mins by liquid scintillation counting method
value_type: Ki (µM)
Record the value in µM, omitting the unit from your answer.

Entry CCCn1c(=O)[nH]c2nc(-c3ccc(S(=O)(=O)O)cc3)[nH]c2c1=O : reported Ki = ? 3.14

###

Molecular target: Adenosine receptor A1 (Homo sapiens) (UniProt P30542)
Sequence (whole entry): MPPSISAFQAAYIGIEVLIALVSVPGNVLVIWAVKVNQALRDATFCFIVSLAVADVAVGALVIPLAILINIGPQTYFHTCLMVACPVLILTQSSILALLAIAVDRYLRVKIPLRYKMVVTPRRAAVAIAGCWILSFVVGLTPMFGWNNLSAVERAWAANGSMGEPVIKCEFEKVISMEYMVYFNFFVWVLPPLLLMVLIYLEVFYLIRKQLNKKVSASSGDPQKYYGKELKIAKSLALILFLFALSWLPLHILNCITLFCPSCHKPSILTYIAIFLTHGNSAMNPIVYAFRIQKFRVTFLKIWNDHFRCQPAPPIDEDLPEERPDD
Assay: Displacement of [3H]CCPA from recombinant human A1 adenosine receptor expressed in CHO cell membranes at 1 uM measured after 90 mins in presence of adenosine deaminase by liquid scintillation counting method relative to control
value_type: inhibition (%)
Record the value in %, omitting the unit from your answer.

Entry CCCn1c(=O)[nH]c2nc(-c3ccc(S(=O)(=O)N4CCN(c5cccc(Cl)c5)CC4)cc3)[nH]c2c1=O : reported inhibition = ? 21

Entry CCCn1c(=O)[nH]c2nc(-c3ccc(S(=O)(=O)N4CCN(c5ccccc5F)CC4)cc3)[nH]c2c1=O : reported inhibition = ? 13

Entry CCCn1c(=O)[nH]c2nc(-c3ccc(S(=O)(=O)N4CCN(Cc5ccc(Br)cc5)CC4)cc3)[nH]c2c1=O : reported inhibition = ? 31

Entry CCCn1c(=O)[nH]c2nc(-c3ccc(S(=O)(=O)N4CCN(c5ccc(OCCO)cc5)CC4)cc3)[nH]c2c1=O : reported inhibition = ? 24

Entry CCCn1c(=O)[nH]c2nc(-c3ccc(S(=O)(=O)N4CCN(c5ccc(F)cc5)CC4)cc3)[nH]c2c1=O : reported inhibition = ? 14

Entry CCCn1c(=O)[nH]c2nc(-c3ccc(S(=O)(=O)N4CCN(c5ccccc5Br)CC4)cc3)[nH]c2c1=O : reported inhibition = ? 28

Entry CCCn1c(=O)[nH]c2nc(-c3ccc(S(=O)(=O)N4CCN(c5ccc(O)c(Cl)c5)CC4)cc3)[nH]c2c1=O : reported inhibition = ? 37

Entry CCCn1c(=O)[nH]c2nc(-c3ccc(S(=O)(=O)N4CCN(Cc5cc(F)cc(OC)c5)CC4)cc3)[nH]c2c1=O : reported inhibition = ? 31

Entry CCCn1c(=O)[nH]c2nc(-c3ccc(S(=O)(=O)N4CCN(c5ccccc5)C(C)C4)cc3)[nH]c2c1=O (centres undefined) : reported inhibition = ? 15

Entry CCCn1c(=O)[nH]c2nc(-c3ccc(S(=O)(=O)N4CCN(c5cccc(F)c5)CC4)cc3)[nH]c2c1=O : reported inhibition = ? 34

Entry CCCn1c(=O)[nH]c2nc(-c3ccc(S(=O)(=O)N4CCN(c5ccc(OC)c(F)c5)CC4)cc3)[nH]c2c1=O : reported inhibition = ? 34

Entry CCCn1c(=O)[nH]c2nc(-c3ccc(S(=O)(=O)N4CCN(C(C)c5ccccc5)CC4)cc3)[nH]c2c1=O (centres undefined) : reported inhibition = ? 42

Entry CCCn1c(=O)[nH]c2nc(-c3ccc(S(=O)(=O)N4CCN(c5ccccc5Cl)CC4)cc3)[nH]c2c1=O : reported inhibition = ? 25

Entry CCCn1c(=O)[nH]c2nc(-c3ccc(S(=O)(=O)N4CCN(Cc5ccc(OC)c(F)c5)CC4)cc3)[nH]c2c1=O : reported inhibition = ? 24

###

target: Adenosine receptor A2a (Homo sapiens); assay: Displacement of [3H]MSX-2 from recombinant human A2A adenosine receptor expressed in CHO cell membranes measured after 60 mins by liquid scintillation counting method
value_type: Ki (µM)
Record the value in µM, omitting the unit from your answer.

Entry CCCn1c(=O)[nH]c2nc(-c3ccc(S(=O)(=O)O)cc3)[nH]c2c1=O : reported Ki = ? 3.79
